The values you see were collected from ChEMBL document CHEMBL1154380.

tested on: Radical scavenging activity; assay: Antioxidant activity assessed as DPPH radical scavenging activity after 30 mins; type: functional
quantity-measured: IC50

                                   molecule  quantity_measured  meas_value
0  CCCOC(=O)c1cc(O)c(O)c(O)c1 [PROPYL GALLATE]               IC50      4.4 µM
1  CCCCCCCC/C=C\CCCCCCCc1c(C)c(O)cc2c1[nH]c1ccccc12 [LIPOCARBAZOLE A3]               IC50      8.7 µM
2  O=C1O[C@H]([C@@H](O)CO)C(O)=C1O [ASCORBIC ACID]               IC50     13.4 µM
3  CCCCCCCCCCCCCCCCCc1c(C)c(O)cc2c1[nH]c1ccccc12               IC50     10.5 µM
